system: WI-38; test: Anti viral activity against VZV(Ito strain) in WI-38 cell monolayers.; format: functional; details: Homo sapiens, read-out: ID50 (the source's name)
// NB: equality with 100 nM counts as false; only IC50 strictly below is true

O=c1[nH]c(=O)n([C@@H]2C[C@H](CO)C2CO)cc1/C=C/Br (stereo not given in full): true
O=c1[nH]c(=O)n([C@@H]2C[C@H](CO)C2CO)cc1/C=C/Cl (stereo not given in full): true
O=c1[nH]c(=O)n([C@@H]2O[C@H](CO)[C@@H](O)[C@@H]2O)cc1/C=C/Br: true

# evaluate next
Here's an entry: O=c1[nH]c(=O)n(C2CC(CO)C2CO)cc1/C=C/Br (racemic) . Is its IC50 below 100 nM? false

The origin of these recorded values is ChEMBL document CHEMBL1126039.
